- Test system: Botryosphaeria berengeriana
- MEASUREMENT_PROTOCOL: Fungicidal activity against Botryosphaeria berengeriana assessed as growth inhibition at 1 ug/mL
- Assay type: functional
- SETTINGS: read-out: GI

| COMPOUND | EXPERIMENTAL_SYSTEM | UNIT_NAME | inhibition of growth at 1 µg/mL |
| --- | --- | --- | --- |
| COCC(O)(Cn1cncn1)c1ccc(Oc2ccc(F)cc2)cc1Cl (stereo unspecified) | Botryosphaeria berengeriana | % | 89.5 |
| COCC(O)(Cn1cncn1)c1ccc(Oc2ccc(Cl)cc2)cc1Cl (stereo unspecified) | Botryosphaeria berengeriana | % | 99.2 |
| CONCC(O)(Cn1cncn1)c1ccc(Oc2ccc(Cl)cc2)cc1Cl (stereo unspecified) | Botryosphaeria berengeriana | % | 84.2 |
| CNCC(O)(Cn1cncn1)c1ccc(Oc2ccc(Cl)cc2)cc1Cl (stereo unspecified) | Botryosphaeria berengeriana | % | 96 |
| OC(Cn1cncn1)(Cn1cncn1)c1ccc(Oc2ccc(Cl)cc2)cc1Cl | Botryosphaeria berengeriana | % | 90.3 |
| CC(C)(C)C(O)(CCc1ccc(Cl)cc1)Cn1cncn1 (stereo unspecified) | Botryosphaeria berengeriana | % | 68.2 |
